assay-target: T1, pig insulin receptor isoform without exon 11 (pig, UniProt F1SCK8 28-746; F1SCK8 751-1370)
T1 construct: also called PIR-11; PIR - 11
T1 sequence (alpha, as listed by the source limits assumed, stated change not applied, form in doubt, chain 1 of 2): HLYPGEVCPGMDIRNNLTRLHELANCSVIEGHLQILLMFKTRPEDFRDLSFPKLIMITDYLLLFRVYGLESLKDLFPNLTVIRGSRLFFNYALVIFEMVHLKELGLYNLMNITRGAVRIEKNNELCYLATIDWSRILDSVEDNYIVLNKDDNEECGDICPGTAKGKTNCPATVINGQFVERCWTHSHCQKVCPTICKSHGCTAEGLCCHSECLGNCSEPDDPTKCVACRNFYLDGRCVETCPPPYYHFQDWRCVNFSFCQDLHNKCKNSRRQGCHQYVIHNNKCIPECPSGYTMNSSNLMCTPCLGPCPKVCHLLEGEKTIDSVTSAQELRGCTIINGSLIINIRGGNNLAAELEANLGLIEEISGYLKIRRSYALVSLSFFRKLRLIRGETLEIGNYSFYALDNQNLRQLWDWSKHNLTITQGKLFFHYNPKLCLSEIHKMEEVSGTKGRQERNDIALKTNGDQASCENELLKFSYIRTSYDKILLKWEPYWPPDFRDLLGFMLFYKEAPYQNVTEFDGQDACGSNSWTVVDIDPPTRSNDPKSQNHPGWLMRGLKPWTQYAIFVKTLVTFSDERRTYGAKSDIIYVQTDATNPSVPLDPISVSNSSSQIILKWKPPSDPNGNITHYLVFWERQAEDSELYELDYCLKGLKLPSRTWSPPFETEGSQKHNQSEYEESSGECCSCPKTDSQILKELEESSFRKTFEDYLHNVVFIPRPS
T1 sequence (beta, as listed by the source limits assumed, stated change not applied, form in doubt, chain 2 of 2): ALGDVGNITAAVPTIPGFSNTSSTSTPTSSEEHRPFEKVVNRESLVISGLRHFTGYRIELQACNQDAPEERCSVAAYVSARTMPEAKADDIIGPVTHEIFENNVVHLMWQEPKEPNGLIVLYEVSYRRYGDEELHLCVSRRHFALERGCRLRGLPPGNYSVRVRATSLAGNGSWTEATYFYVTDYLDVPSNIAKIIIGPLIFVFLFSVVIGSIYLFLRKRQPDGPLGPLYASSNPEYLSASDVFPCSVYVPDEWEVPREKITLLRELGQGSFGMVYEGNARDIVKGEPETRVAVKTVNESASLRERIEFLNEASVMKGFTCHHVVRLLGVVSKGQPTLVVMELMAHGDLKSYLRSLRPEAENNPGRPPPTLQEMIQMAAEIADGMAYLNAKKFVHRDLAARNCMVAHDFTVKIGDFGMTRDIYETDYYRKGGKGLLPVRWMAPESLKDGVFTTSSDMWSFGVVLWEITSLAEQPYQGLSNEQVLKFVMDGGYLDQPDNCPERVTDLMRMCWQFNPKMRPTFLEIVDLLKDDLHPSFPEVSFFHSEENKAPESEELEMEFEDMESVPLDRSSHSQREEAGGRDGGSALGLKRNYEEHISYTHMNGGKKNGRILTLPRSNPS
method-summary: receptor binding, standard methods (FIG. 2)
Ends that are not written are not given here.
measured-endpoint: relative affinity
Response field accepts a number only; no unit should be typed.

Reported relative affinity for {MeO‑PEG5000}-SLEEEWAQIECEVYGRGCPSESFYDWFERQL (cysteine pairing not given here) [S660] : what is it?
5.5

Reported relative affinity for Ac-SLEEEWAQIECEVWGRGCPSEGFYNAIELLS (cysteine pairing not given here) [S726] : what is it?
1.3

Reported relative affinity for SLEEEWAQIEAEVWGRGAPSESFYDWFERQLG [S574] : what is it?
0.2

Reported relative affinity for Ac-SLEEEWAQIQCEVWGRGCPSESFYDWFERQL (cysteine pairing not given here) [S636] : what is it?
32

Reported relative affinity for Ac-SLEEEWAQIQCEVWGRGCPSESFYDWFERQLG (cysteine pairing not given here) [S671] : what is it?
23

Reported relative affinity for Ac-SLEEEWAQIQCEVWGRGCPSESFYGWFERQL (cysteine pairing not given here) [S667] : what is it?
47

Reported relative affinity for SLEEEWAQIECEVYGRGCPSVRGFQGGTVWPGYEWLRNAAKK [S626] : what is it?
1

Reported relative affinity for SLEEEWAQVECEVYERGCPSESFYDWFERQL [S696] : what is it?
0.3

Reported relative affinity for Ac-SLEEEWAQIQCEVWGRGCPSESFYGWFERQLG (cysteine pairing not given here) [S733] : what is it?
111

Where these numbers come from: patent US20100298213A1
